Experiment: AUC in Wistar rat plasma at 3 mg/kg, po
Format: ADME, organism-based
Design: dose 3 mg/kg, route oral
The compounds listed here are annotated with their AUC.
Metric name: AUC (ng·h/mL)

INSERT INTO measurements (line_notation, unit_of_measure, recorded_number) VALUES
  ('CC(C)c1nc2ccc(-c3ccc(F)cc3)cc2c(=O)n1C[C@H]1CCCN(C(C)C)C1', 'ng·h/mL', 1700),
  ('Cc1nc2ccc(Oc3ccc(F)cc3)cc2c(=O)n1C[C@H]1CCCN(C(C)C)C1', 'ng·h/mL', 1300);

* * *

Experiment: Volume of distribution in Wistar rat plasma at 1 mg/kg, iv
Format: ADME, organism-based
Set-up: dose 1 mg/kg, route intravenous
Conditions: read-out: Vdss
Metric name: Vd (L/kg)

INSERT INTO measurements (line_notation, metric_name, recorded_number) VALUES
  ('Cc1nc2ccc(Oc3ccc(F)cc3)cc2c(=O)n1C[C@H]1CCCN(C(C)C)C1', 'Vd', 19.2);

* * *

Assay: Cmax in po dosed DIO C57BL/6 mouse after 5 hrs
Format: ADME, organism-based
Design: route oral
Details: in vivo
Cmax for assorted compounds
Metric name: Cmax

INSERT INTO results (compound, result) VALUES
  ('Cc1ccccc1-c1nc2ccc(Oc3ccc(F)cc3)cc2c(=O)n1C[C@H]1CCCN(C(C)C)C1 (stereo in doubt; 36)', '3.1 µM'),
  ('Cc1nc2ccc(Oc3ccc(F)cc3)cc2c(=O)n1C[C@H]1CCCN(C(C)C)C1', '3.4 µM'),
  ('CC(C)N1CCCC(Cn2c(-c3ccc(OCCO)cc3F)nc3ccc(Oc4ccc(F)cc4)cc3c2=O)C1 (racemic)', '5.7 µM'),
  ('CC(C)c1nc2ccc(-c3ccc(F)cc3)cc2c(=O)n1C[C@H]1CCCN(C(C)C)C1', '0.8 µM'),
  ('CCN1CCC[C@H](Cn2c(-c3ccccc3C)nc3ccc(-c4ccc(Cl)cc4)cc3c2=O)C1', '2.2 µM');

* * *

Target: Ghrelin receptor (Ovis aries, UniProt Q8MHZ5)
Sequence (Q8MHZ5 whole entry): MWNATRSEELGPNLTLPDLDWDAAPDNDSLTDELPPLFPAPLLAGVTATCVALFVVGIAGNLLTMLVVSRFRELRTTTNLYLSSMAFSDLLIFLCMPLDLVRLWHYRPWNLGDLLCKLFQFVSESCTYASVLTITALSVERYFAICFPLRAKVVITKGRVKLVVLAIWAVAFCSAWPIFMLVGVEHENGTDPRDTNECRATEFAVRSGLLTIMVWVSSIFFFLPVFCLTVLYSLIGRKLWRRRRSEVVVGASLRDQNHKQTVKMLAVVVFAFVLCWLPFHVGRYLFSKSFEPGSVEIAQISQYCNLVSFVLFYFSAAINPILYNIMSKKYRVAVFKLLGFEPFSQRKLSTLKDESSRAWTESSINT
Test: Displacement of [125I]ghrelin from ovine recombinant GHSR1a expressed in HEK293F cells after 6 hrs by scintillation proximity assay
Measured Ki accompanies every entry in the list below.
Metric name: Ki (nM)

INSERT INTO assay_data (molecule, metric_name, relation_qualifier, recorded_number) VALUES
  ('CCCCN(C)c1ccc2nc(-c3ccccc3OC)n(CC3CCCNC3)c(=O)c2c1 (centres undefined)', 'Ki', '=', 36),
  ('CCN1CCCC(Cn2c(-c3ccccc3C)nc3ccc(OC(F)(F)F)cc3c2=O)C1 (centres undefined)', 'Ki', '=', 24),
  ('CCN1CCCC(CCn2c(-c3ccccc3OC)nc3ccc(-c4ccc(Cl)cc4)cc3c2=O)C1 (centres undefined)', 'Ki', '>', 10000),
  ('CCCCN(C)c1ccc2nc(-c3ccccc3OC)n(CC3CCCN(CC)C3)c(=O)c2c1 (centres undefined)', 'Ki', '=', 20),
  ('CCN1CCC[C@H](Cn2c(-c3ccccc3C)nc3ccc(OC(F)(F)F)cc3c2=O)C1', 'Ki', '=', 16),
  ('CC(C)c1nc2ccc(-c3ccccc3Cl)cc2c(=O)n1C[C@@H]1CCCN(C(C)C)C1', 'Ki', '=', 1800),
  ('Cc1ccccc1-c1nc2ccc(-c3ccc(Cl)cc3)cc2c(=O)n1CC1CCCN(C2CCC2)C1 (centres undefined)', 'Ki', '=', 2.5),
  ('CCN1CCC[C@@H](Cn2c(-c3ccccc3C)nc3ccc(OC(F)(F)F)cc3c2=O)C1', 'Ki', '=', 95),
  ('Cc1ccccc1-c1nc2ccc(-c3ccc(Cl)cc3)cc2c(=O)n1CC1CCCN(CC(F)(F)F)C1 (centres undefined)', 'Ki', '=', 2000),
  ('Cc1nc2ccc(-c3ccc(Cl)cc3)cc2c(=O)n1C[C@H]1CCCN(C(C)C)C1', 'Ki', '=', 110),
  ('CCN1CCC[C@H](Cn2c(-c3ccccc3C)nc3ccc(-c4ccc(Cl)cc4)cc3c2=O)C1', 'Ki', '=', 1.7),
  ('Cc1ccccc1-c1nc2ccc(Oc3ccc(F)cc3)cc2c(=O)n1C[C@@H]1CCCN(C(C)C)C1', 'Ki', '=', 47),
  ('CCN1CCCC(Cn2c(-c3ccccc3OC)nc3ccc(OC)cc3c2=O)C1 (centres undefined)', 'Ki', '=', 910),
  ('Cc1ccccc1-c1nc2ccc(Oc3ccc(F)cc3)cc2c(=O)n1C[C@H]1CCCN(C(C)C)C1 (stereo in doubt; (S)-35)', 'Ki', '=', 0.9),
  ('CC(C)c1nc2ccc(Oc3ccc(F)cc3)cc2c(=O)n1C[C@H]1CCCN(C(C)C)C1', 'Ki', '=', 4),
  ('CCN1CCCC(Cn2c(-c3ccccc3C)nc3ccc(-c4ccc(Cl)cc4)cc3c2=O)C1 (centres undefined)', 'Ki', '=', 1.8),
  ('CCN1CCC=C(Cn2c(-c3ccccc3C)nc3ccc(-c4ccc(Cl)cc4)cc3c2=O)C1', 'Ki', '=', 26),
  ('COCCN1CCCC(Cn2c(-c3ccccc3C)nc3ccc(-c4ccc(Cl)cc4)cc3c2=O)C1 (centres undefined)', 'Ki', '=', 4),
  ('CC(C)c1nc2ccc(-c3ccccc3Cl)cc2c(=O)n1C[C@H]1CCCN(C(C)C)C1', 'Ki', '=', 127);
